Sourced from PubChem BioAssay AID1259407

System: CCRIS mutagenicity, Ames/micronucleus/aberration tests
Assay Procedure: CCRIS mutagenicity studies
Measurement Context: Test System: AMES SALMONELLA TYPHIMURIUM; Strain/Indicator: TA97; Metabolic Activation: NONE; Method: PREINCUBATION
Text: The CCRIS database contains chemical records with carcinogenicity, mutagenicity, tumor promotion, and tumor inhibition test results. It was developed by the National Cancer Institute (NCI). Data are derived from studies cited in primary journals, current awareness tools, NCI reports, and other sources. Test results have been reviewed by experts in carcinogenesis and mutagenesis. CCRIS provides historical information from the years 1985 - 2011. It is no longer updated. […]
The source made the active and inactive calls. The rule behind the calls is not given here.
Valid outcomes are listed here; reply with one: YES for active, NO for inactive

| Compound | Assigned Class |
| --- | --- |
| CC1=CC(=O)c2c(O)cccc2C1=O | YES |
| CCN(CC)c1ccc2c(-c3ccccc3C(=O)O)c3ccc(=[N+](CC)CC)cc-3oc2c1 | NO |
| COc1ccc(N=[N+]([O-])c2ccc(OC)cc2)cc1 | NO |

Fill in: this test's call for CCCCOC(C)=O is ___
NO
